EC50 listing for selected binders.
Biological target: T1, TF on the surface of tumor cells (MDA-MB-231, HPAF-II, HCC1806, BxPC3, HCC44, PC9, H1975 and other … (UniProt P13726 33-295, limits assumed))
T1 construct: whole, on cells; the cell lines are human tumour lines; also called TF on cell surface; tumor cell surface TF
Assay: flow cytometry on MDA-MB-231 cells, PE-labeled secondary antibody
Supply the numeric figure in mg/L, leaving out any unit text.

>  <binder>
4-C08-FC1 (chimeric nanobody: 4-C08 VHH fused with human Fc mutant fragment FC1) (Fc fusion, built from the VHH and FC1) DVQLVESGGGLVQPGGSLRLSCAVSGFSLSSYDMNWYRQGPGKEREWVANIHSSGGYPDYADAVKGRFTISRDNAKNMVYLQMNSLKPEDTAVYYCNLPPSRRWYKDYWGQGTQVTVSSEPKSSDKTHTCPPCPAPEFEGGPSVFLFPPKPKDTLMISRTPEVTCVVVDVSHEDPEVKFNWYVDGVEVHNAKTKPREEQYNSTYRVVSVLTVLHQDWLNGKEYKCKVSNKALPASIEKTISKAKGQPREPQVYTLPPSRDELTKNQVSLTCLVKGFYPSDIAVEWESNGQPENNYKTTPPVLDSDGSFFLYSKLTVDKSRWQQGNVFSCSVMHEALHNHYTQKSLSLSPGK

>  <quantityKind>
EC50

>  <observedValue>
0.05

$$$$

Lab note: next binder to report on.
Task: Recorded EC50 for 4-E04-FC1 (chimeric nanobody: 4-E04 VHH fused with human Fc mutant fragment FC1) (Fc fusion, built from the VHH and FC1) AVQLVESGGGLVQPGGSLSLSCAASEMISSTYIMGWYRRSPGKERELVAVISGDGVTHYGDFVKGRFAISRDNVKNAVYLKMNFLTPEDTAVYYCNAAGRRNHWGQGTQVTVSSEPKSSDKTHTCPPCPAPEFEGGPSVFLFPPKPKDTLMISRTPEVTCVVVDVSHEDPEVKFNWYVDGVEVHNAKTKPREEQYNSTYRVVSVLTVLHQDWLNGKEYKCKVSNKALPASIEKTISKAKGQPREPQVYTLPPSRDELTKNQVSLTCLVKGFYPSDIAVEWESNGQPENNYKTTPPVLDSDGSFFLYSKLTVDKSRWQQGNVFSCSVMHEALHNHYTQKSLSLSPGK , please?
Output: 0.13
